Species on record: Rattus norvegicus
Assay: Open TG-GATES - Regimen: Single
Type: toxicity, organism-based, Sprague-Dawley
Parameters: regimen Single, gender Male, age 6 weeks
Details: in vivo, po, 300 mg/kg, 3 h, tissue Blood, route gavage, dose level Middle
Listing of entries alongside the reported RBC.
Report the figure in x10_4/ul without appending any unit label.

Examples from the recorded data:
NC(N)=Nc1nc(CSCCC(N)=NS(N)(=O)=O)cs1 | 598
CCOC(=O)CCC(=O)O[C@H]1[C@H](O[C@@H]2[C@@H](C)[C@H](O[C@H]3C[C@@](C)(OC)[C@@H](O)[C@H](C)O3)[C@@H](C)C(=O)O[C@H](CC)[C@@](C)(O)[C@H](O)[C@@H](C)C(=O)[C@H](C)C[C@@]2(C)O)O[C@H](C)C[C@@H]1N(C)C [ERYTHROMYCIN ETHYLSUCCINATE] | 606.2
COc1ccc2[nH]c([S+]([O-])Cc3ncc(C)c(OC)c3C)nc2c1 (centres undefined) | 584.6

Recorded RBC for `COC1=CC(=O)C[C@@H](C)[C@]12Oc1c(Cl)c(OC)cc(OC)c1C2=O` , please? 592

---

Species on record: Rattus norvegicus
Assay: Open TG-GATES - Regimen: Single
Format: toxicity, organism-based, Sprague-Dawley
Design: regimen Single, gender Male, age 6 weeks
Conditions: in vivo, po, 30 mg/kg, 24 h, route gavage, dose level Middle
// values below are reported TERMINAL_BW
State the answer as a number, implicitly in g.

CN(C)CCCN1c2ccccc2CCc2ccccc21 [IMIPRAMINE] | 209.9
CC1=C(/C=C/C(C)=C/C=C/C(C)=C/CO)C(C)(C)CCC1 [RETINOL] | 208
CN(C)CCN(Cc1cccs1)c1ccccn1 | 198

Bench note: what TERMINAL_BW did CN(C)CCCN1c2ccccc2CCc2ccc(Cl)cc21 [CLOMIPRAMINE] show? 231.8

---

# Ret values compiled below
Species on record: Rattus norvegicus
Assay: Open TG-GATES - Regimen: Single
Assay type: toxicity, organism-based, Sprague-Dawley
Parameters: regimen Single, gender Male, age 6 weeks
Settings: in vivo, po, 30 mg/kg, 24 h, tissue Blood, route gavage, dose level Middle

Some solved cases for reference:
CN(C)CCCN1c2ccccc2CCc2ccc(Cl)cc21 | 7.1%
CC1=C(/C=C/C(C)=C/C=C/C(C)=C/CO)C(C)(C)CCC1 | 7.8%
CN(C)CCN(Cc1cccs1)c1ccccn1 | 6.8%

Name the recorded Ret for `CN(C)CCCN1c2ccccc2CCc2ccccc21` . 7.6%

---

Listing of entries alongside the reported TC.
Species: Rattus norvegicus
Assay: Open TG-GATES - Regimen: Single
Type: toxicity, organism-based, Sprague-Dawley
Parameters: regimen Single, gender Male, age 6 weeks
Conditions: in vivo, po, 300 mg/kg, 9 h, tissue Plasma, route gavage, dose level Middle
Kindly answer with a numeric value in mg/dL, unit omitted.

CCOC(=O)CCC(=O)O[C@H]1[C@H](O[C@@H]2[C@@H](C)[C@H](O[C@H]3C[C@@](C)(OC)[C@@H](O)[C@H](C)O3)[C@@H](C)C(=O)O[C@H](CC)[C@@](C)(O)[C@H](O)[C@@H](C)C(=O)[C@H](C)C[C@@]2(C)O)O[C@H](C)C[C@@H]1N(C)C [ERYTHROMYCIN ETHYLSUCCINATE] | 75.2

I have this compound here, COc1ccc2[nH]c([S+]([O-])Cc3ncc(C)c(OC)c3C)nc2c1 (centres undefined) , and I need its recorded TC. 70.4

Looking for the measured TC of `NC(N)=Nc1nc(CSCCC(N)=NS(N)(=O)=O)cs1` , can you help? 67.8

Record request: TC value, item `COC1=CC(=O)C[C@@H](C)[C@]12Oc1c(Cl)c(OC)cc(OC)c1C2=O` 75

All figures here come from ChEMBL document CHEMBL3885861.
